assay_target: ENaC (Homo sapiens, UniProt P37088+P51168+P51170)
Construct: host or cells: primary human bronchial epithelial cells (HBECs) differentiated at an air-liquid interface
Sequence (P37088 1-669): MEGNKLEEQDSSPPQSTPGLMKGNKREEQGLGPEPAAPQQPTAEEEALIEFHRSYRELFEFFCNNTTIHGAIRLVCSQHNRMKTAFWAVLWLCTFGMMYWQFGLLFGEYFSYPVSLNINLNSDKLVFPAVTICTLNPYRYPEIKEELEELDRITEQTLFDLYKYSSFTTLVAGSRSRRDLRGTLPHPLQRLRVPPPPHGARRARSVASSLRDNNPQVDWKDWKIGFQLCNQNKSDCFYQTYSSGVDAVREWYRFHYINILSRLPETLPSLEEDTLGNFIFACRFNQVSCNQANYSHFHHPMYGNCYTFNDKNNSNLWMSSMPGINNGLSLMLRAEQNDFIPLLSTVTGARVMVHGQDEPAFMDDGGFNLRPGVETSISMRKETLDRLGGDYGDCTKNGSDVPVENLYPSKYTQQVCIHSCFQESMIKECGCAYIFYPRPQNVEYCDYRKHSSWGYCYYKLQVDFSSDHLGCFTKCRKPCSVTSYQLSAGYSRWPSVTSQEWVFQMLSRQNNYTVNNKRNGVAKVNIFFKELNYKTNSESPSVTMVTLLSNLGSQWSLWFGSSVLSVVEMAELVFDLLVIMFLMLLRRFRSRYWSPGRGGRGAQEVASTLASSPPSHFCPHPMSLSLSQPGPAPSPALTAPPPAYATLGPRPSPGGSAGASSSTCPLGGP
Sequence (P51168 1-640): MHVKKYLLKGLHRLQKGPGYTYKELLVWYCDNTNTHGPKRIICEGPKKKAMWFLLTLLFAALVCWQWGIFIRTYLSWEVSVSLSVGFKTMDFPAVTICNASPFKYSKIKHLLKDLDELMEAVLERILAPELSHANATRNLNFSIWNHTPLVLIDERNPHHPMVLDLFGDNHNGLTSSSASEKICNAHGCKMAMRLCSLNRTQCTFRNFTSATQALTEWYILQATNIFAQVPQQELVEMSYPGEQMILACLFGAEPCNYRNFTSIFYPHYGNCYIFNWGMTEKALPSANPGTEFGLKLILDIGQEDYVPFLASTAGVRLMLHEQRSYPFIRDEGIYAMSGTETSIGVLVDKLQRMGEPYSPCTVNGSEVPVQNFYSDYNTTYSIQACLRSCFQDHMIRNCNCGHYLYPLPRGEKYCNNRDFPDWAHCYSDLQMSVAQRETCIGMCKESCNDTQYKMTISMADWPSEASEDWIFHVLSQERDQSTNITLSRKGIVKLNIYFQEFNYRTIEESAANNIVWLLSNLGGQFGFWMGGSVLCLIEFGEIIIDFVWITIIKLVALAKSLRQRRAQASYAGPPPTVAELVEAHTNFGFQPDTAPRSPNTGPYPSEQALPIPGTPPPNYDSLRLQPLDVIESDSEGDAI
Sequence (P51170 1-649): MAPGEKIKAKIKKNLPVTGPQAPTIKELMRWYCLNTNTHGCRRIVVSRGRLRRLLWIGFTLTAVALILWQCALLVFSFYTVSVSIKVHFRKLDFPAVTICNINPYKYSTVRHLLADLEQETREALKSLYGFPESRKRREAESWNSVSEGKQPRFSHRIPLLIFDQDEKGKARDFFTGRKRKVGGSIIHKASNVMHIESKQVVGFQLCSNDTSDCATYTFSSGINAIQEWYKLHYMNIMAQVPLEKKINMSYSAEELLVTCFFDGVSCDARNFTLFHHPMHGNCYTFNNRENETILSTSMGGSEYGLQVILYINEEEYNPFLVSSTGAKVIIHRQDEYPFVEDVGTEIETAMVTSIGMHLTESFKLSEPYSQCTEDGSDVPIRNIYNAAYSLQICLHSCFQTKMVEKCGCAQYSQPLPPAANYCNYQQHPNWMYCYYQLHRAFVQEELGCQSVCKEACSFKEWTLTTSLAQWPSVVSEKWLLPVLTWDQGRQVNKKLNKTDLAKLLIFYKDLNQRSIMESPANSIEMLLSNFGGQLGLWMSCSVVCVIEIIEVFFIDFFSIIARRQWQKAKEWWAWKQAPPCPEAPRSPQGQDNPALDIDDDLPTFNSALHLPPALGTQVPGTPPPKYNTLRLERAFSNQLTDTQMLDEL
protocol_summary: Short circuit current assay to determine ENaC blocker potency in human bronchial epithelial cells
Format: cell-based
particulars: 50% inhibition of total amiloride-sensitive ISC, HBECs, apical addition; read-out: Averages. ENaC Ic50 μm Avg
Catalogue of compounds with associated IC50

| compound | endpoint_unit | IC50 |
| --- | --- | --- |
| CCn1c(CNC(=O)c2nc(Br)cnc2N)[n+](C)c2ccc(Cl)cc21.O=CO.O=C[O-] [Example 11, formic acid formate] | nM | 2 |
| CCn1c(CNC(=O)c2nc(Br)cnc2N)[n+](Cc2ccccc2)c2ccc(C(F)(F)F)cc21.O=C[O-] [Example 19, formate] | nM | 4 |
| CCn1c(CNC(=O)c2nc(Br)cnc2N)[n+](CC)c2ccc(OCCNC(=O)OC(C)(C)C)cc21.O=C[O-] [Example 24, formate] | nM | 2 |
| CCn1c(CNC(=O)c2nc(Br)cnc2N)[n+](C)c2ccc(F)cc21.O=C[O-] [Example 12, formate] | nM | 19 |
